Biological target: Beta-glucuronidase (Bos taurus)
Sequence (A3KMY8 whole entry): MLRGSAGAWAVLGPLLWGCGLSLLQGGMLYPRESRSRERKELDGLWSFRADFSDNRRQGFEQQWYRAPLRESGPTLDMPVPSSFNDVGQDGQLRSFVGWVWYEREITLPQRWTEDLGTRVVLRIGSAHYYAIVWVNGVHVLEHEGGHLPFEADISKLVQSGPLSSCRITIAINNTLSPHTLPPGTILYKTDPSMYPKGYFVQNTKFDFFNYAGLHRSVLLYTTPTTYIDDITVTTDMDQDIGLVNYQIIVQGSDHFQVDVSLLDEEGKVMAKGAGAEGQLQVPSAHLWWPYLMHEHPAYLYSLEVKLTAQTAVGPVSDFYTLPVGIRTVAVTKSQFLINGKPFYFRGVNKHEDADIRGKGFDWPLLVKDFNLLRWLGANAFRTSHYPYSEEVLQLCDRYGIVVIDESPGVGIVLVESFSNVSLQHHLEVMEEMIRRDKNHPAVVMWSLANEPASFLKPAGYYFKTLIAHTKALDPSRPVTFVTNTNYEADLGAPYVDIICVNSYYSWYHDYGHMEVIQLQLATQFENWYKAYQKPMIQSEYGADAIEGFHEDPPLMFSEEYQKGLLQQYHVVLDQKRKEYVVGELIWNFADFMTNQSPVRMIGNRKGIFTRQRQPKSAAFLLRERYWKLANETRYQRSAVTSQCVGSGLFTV
Assay: Inhibition of bovine liver beta glucuronidase using p-nitrophenyl-beta-D-glucuronide as substrate preincubated for 30 mins followed by substrate addition by spectrophotometric method
Conditions: read-out: IC50
pIC50: −log10 of the molar value.
EXPERIMENTAL READOUT: pIC50

Record excerpt, results attached:
Clc1ccc(-c2nc3ccccc3[nH]2)cc1Cl : 5.20
Cc1ncc([N+](=O)[O-])n1CCOC(=O)c1cccc([N+](=O)[O-])c1 : 4.56
Cc1ncc([N+](=O)[O-])n1CCOC(=O)c1cccc(F)c1 : 5.09

P: Cc1ncc([N+](=O)[O-])n1CCOC(=O)c1cccnc1
Q: Cc1ncc([N+](=O)[O-])n1CCOC(=O)c1cccc(Cl)c1
Req: Returns: the label, P or Q , whose recorded pIC50 is the lower number. I would appreciate it if you answered with the label of your choice.
Resp: P

a: Cc1ncc([N+](=O)[O-])n1CCOC(=O)c1ccccc1Br
b: COc1ccc(/C=C/C(=O)OCCn2c([N+](=O)[O-])cnc2C)cc1
c: Cc1cc(C(=O)OCCn2c([N+](=O)[O-])cnc2C)ccc1[N+](=O)[O-]
d: Cc1ncc([N+](=O)[O-])n1CCOC(=O)c1cc2ccccc2[nH]1
Req: Please put the entries in order of rising pIC50. Present the labels in the sequence the task asks for.
Resp: a, b, c, d
(a: 4.31, b: 4.51, c: 5.14, d: 5.68)

A: COc1ccc(C(=O)OCCn2c([N+](=O)[O-])cnc2C)cc1
B: Cc1ccc(C(=O)OCCn2c([N+](=O)[O-])cnc2C)cc1
C: Cc1ncc([N+](=O)[O-])n1CCOC(=O)c1cc(Cl)ccc1Cl
Req: Arrange these compounds by their pIC50, starting with the largest number. Present the labels in the sequence the task asks for.
Resp: C, B, A
(C: 5.21, B: 4.45, A: 4.22)

###

molecular target: Beta-glucuronidase (Bos taurus, UniProt A3KMY8); assay: Inhibition of bovine liver beta glucuronidase using p-nitrophenyl-beta-D-glucuronide as substrate preincubated for 30 mins followed by substrate addition by spectrophotometric method; conditions: read-out: IC50
EXPERIMENTAL READOUT: IC50 (µM)

Cc1ccccc1C(=O)OCCn1c([N+](=O)[O-])cnc1C : 44.2

a: Cc1ncc([N+](=O)[O-])n1CCOC(=O)c1ccc(Br)cc1
b: Cc1cc(C)cc(C(=O)OCCn2c([N+](=O)[O-])cnc2C)c1
c: Cc1ncc([N+](=O)[O-])n1CCOC(=O)c1ccc2ncsc2c1
Req: Arrange these compounds by their IC50, starting with the largest number. Present the labels in the sequence the task asks for.
Resp: a, b, c
